Experimental Details: Confirmation assay for measurement of the activity of small molecule inhibitors on Zika virus induced Caspase-3 activity in human iPSC derived neural progenitor cells (hNPCs)
Condition Details: hNPC ZIKV-induced caspase-3/7, Caspase-Glo luminescence, 6 h; series mostly up to 46.1 µM
Inconclusive results are not listed. The source made the active and inactive calls. The call rests on the fitted dose curve; in most records, active means well fitted inhibition curve with a large enough effect; inconclusive means small, poorly fitted or top-dose-only effect; inactive means no such curve, though single readings can be large or run the other way.
Measured Metric: Potency

// solved cases for Potency follow
>  <Molecule>
c1ccc2[nH]c(-c3cscn3)nc2c1

>  <Measured Value>
9.75 µM (active)

$$$$
>  <Molecule>
CN1CC(=O)N2C(Cc3c([nH]c4ccccc34)[C@H]2c2ccc3c(c2)OCO3)C1=O (stereo not given in full)

>  <Measured Value>
inactive

$$$$
>  <Molecule>
CC(=NNC(=S)N1CCC1)c1ccccn1

>  <Measured Value>
inactive

$$$$
>  <Molecule>
COc1ccc(CC2=NN3C([C@@H](CCc4ccccc4)[C@@H](C)O)=NC(C)C3C(=O)N2)cc1OC (stereo not given in full)

>  <Measured Value>
inactive

$$$$

Now turn to the next molecule.
Query: I'd like to know its Potency. The molecule in question is `Cc1cccc(/C=C/c2ccccc2)n1`
Result: 8.69 µM (active)
